- Measurement description: In vitro metabolism profiling of CDD, statements for LS9 from all tested species
- Assay type: in vitro ADME, human, monkey, dog, rat
- Applied conditions: beagle (dog); Sprague-Dawley (rat), human, monkey, dog, rat, liver S9 (LS9); all LS9s; read-out: t 1/2 of CDD
Measured metric: half-life at 3 µM

## Task What half-life at 3 µM value was documented for this compound, CCOC(=O)CCC(=O)Oc1ccc(/C=C/C(=O)/C=C(O)/C=C/c2ccc(OC(=O)CCC(=O)OCC)c(OC)c2)cc1OC [CDD, curcumin diethyl disuccinate] ?
## Result < 1.04 min

###

- Measurement description: In vitro metabolism profiling of CDD in dog liver S9 (1 mg/ml)
- Format: in vitro ADME, dog (beagle)
- Applied conditions: beagle, liver S9; dog LS9 1 mg/ml; read-out: t 1/2 (CDD)
- Method: The metabolism profiles of CDD were investigated against HLS9, MLS9, DLS9, and RLS9. A stock solution of CDD was prepared at 150 µM in 50% acetonitrile in water before use. […] The concentrations of CDD, curcumin, and MSCUR in the supernatant were determined from the standard plots, which were prepared by spiking individual working solutions of the compounds to heat-inactivated HLS9, MLS9, DLS9, and RLS9 ([Alcorn et al., 2007]; [Montoro-Garcia et al., 2009]; [Singh et al., 2010]). […]
Measured metric: half-life at 3 µM (s)
A number alone suffices; assume s.

## Task What half-life at 3 µM value was documented for this compound, CCOC(=O)CCC(=O)Oc1ccc(/C=C/C(=O)/C=C(O)/C=C/c2ccc(OC(=O)CCC(=O)OCC)c(OC)c2)cc1OC [CDD, curcumin diethyl disuccinate] ?
## Result 52.2

###

- Measurement description: In vitro metabolism profiling of CDD in human liver S9 (1 mg/ml)
- Format: in vitro ADME
- Applied conditions: pooled liver S9; human LS9 1 mg/ml; read-out: t 1/2 (MSCUR)
Measured metric: half-life (s)
A number alone suffices; assume s.

## Task What half-life value was documented for this molecule, CCOC(=O)CCC(=O)Oc1ccc(/C=C/C(=O)/C=C(O)/C=C/c2ccc(O)c(OC)c2)cc1OC ?
## Result 3.46

###

- Measurement description: In vitro metabolism profiling of CDD in dog liver S9 (1 mg/ml)
- Type: in vitro ADME, dog (beagle)
- Applied conditions: beagle, liver S9; dog LS9 1 mg/ml; read-out: t 1/2 (MSCUR)
Measured metric: half-life at 3 µM (s)
A number alone suffices; assume s.

## Task What half-life at 3 µM value was documented for this molecule, CCOC(=O)CCC(=O)Oc1ccc(/C=C/C(=O)/C=C(O)/C=C/c2ccc(O)c(OC)c2)cc1OC [MSCUR, monoethylsuccinyl curcumin] ?
## Result 1.7

###

- Measurement description: In vitro metabolism profiling of CDD in monkey liver S9 (1 mg/ml)
- Assay type: in vitro ADME, monkey (cynomolgus)
- Applied conditions: liver S9; monkey LS9 1 mg/ml; read-out: t 1/2 (MSCUR)
Measured metric: half-life at 3 µM
Could you write the number and then its unit?

## Task What half-life at 3 µM value was documented for this molecule, CCOC(=O)CCC(=O)Oc1ccc(/C=C/C(=O)/C=C(O)/C=C/c2ccc(O)c(OC)c2)cc1OC ?
## Result 2.03 s

###

- Measurement description: In vitro metabolism profiling of CDD in monkey liver S9 (1 mg/ml)
- Format: in vitro ADME, monkey (cynomolgus)
- Applied conditions: liver S9; monkey LS9 1 mg/ml; read-out: t 1/2 (CDD)
Measured metric: half-life at 3 µM (min)
A number alone suffices; assume min.

## Task What half-life at 3 µM value was documented for this compound, CCOC(=O)CCC(=O)Oc1ccc(/C=C/C(=O)/C=C(O)/C=C/c2ccc(OC(=O)CCC(=O)OCC)c(OC)c2)cc1OC [CDD, curcumin diethyl disuccinate] ?
## Result 0.87
